- Tested on: KM12
- Assay Protocol: Growth inhibition of human KM12 cells after 96 hrs by sulforhodamine B assay
- Assay type: functional
- Test Parameters: KM12, 96 h
Values of GI50 strictly less than 7 µM map to YES, and values of at least 7 µM map to NO.

**Q:** Lab log: compare recorded GI50 with 7 µM; is it strictly lower for CCC(O)[C@H](CC)Nc1nc(NCc2cccnc2)c2ncn(C(C)C)c2n1 (mixture of isomers) ?
**A:** NO

**Q:** Lab log: compare recorded GI50 with 7 µM; is it strictly lower for CC[C@H](CO)Nc1nc(NCc2ccccn2)c2ncn(C(C)C)c2n1 ?
**A:** NO

**Q:** Lab log: compare recorded GI50 with 7 µM; is it strictly lower for CC[C@@H](Nc1nc(NCc2ccccn2)c2ncn(C(C)C)c2n1)C(C)(C)O ?
**A:** NO

**Q:** Lab log: compare recorded GI50 with 7 µM; is it strictly lower for CCC(O)[C@H](CC)Nc1nc(NCc2ccccc2)c2ncn(C(C)C)c2n1 (mixture of isomers) ?
**A:** NO

**Q:** Lab log: compare recorded GI50 with 7 µM; is it strictly lower for CC[C@@H](Nc1nc(NCc2ccccc2)c2ncn(C(C)C)c2n1)C(C)O (mixture of isomers) ?
**A:** YES
